Origin of the recorded values: the supplement of paper PMC10126150

- System: ATP;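 also: ATP exposure 15 min at 22 °C before imaging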
- Protocol Details: switch fluorescence ratio, 500 uM ATP over buffer (Cy3 cluster intensity, sum of 5 cycles each) (fold (ratio)); higher = stronger signal-on switching upon ATP binding; sequences stand for … in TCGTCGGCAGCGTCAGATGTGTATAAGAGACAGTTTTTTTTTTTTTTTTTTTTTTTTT…TC
- Assay Conditions: aptamer strand: ATP DNA aptamer (quencher-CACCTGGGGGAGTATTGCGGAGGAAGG + anchor), 100 nM annealed; ATP concentration: 500 uM
Quantity Kind: switch fluorescence ratio
I only need the number, thanks.

What reported switch fluorescence ratio corresponds to CGGAGAGATG on ATP?
1.04

What reported switch fluorescence ratio corresponds to GGGTTGAGTG on ATP?
0.982

What reported switch fluorescence ratio corresponds to AAGGCGGGAG on ATP?
0.96

What reported switch fluorescence ratio corresponds to TGGGTTTTAT on ATP?
0.995

What reported switch fluorescence ratio corresponds to AAGGTACGAA on ATP?
1.04

What reported switch fluorescence ratio corresponds to TTCTTTTACG on ATP?
1.05

What reported switch fluorescence ratio corresponds to TCGGGGTGAC on ATP?
1.01

What reported switch fluorescence ratio corresponds to TGATTACTCA on ATP?
1.03

What reported switch fluorescence ratio corresponds to TTCATTTACA on ATP?
1.04

What reported switch fluorescence ratio corresponds to GGGGGGGAAG on ATP?
1.01

What reported switch fluorescence ratio corresponds to TTTACCTTGC on ATP?
2.03

What reported switch fluorescence ratio corresponds to CCAAGCGCCC on ATP?
1.63

What reported switch fluorescence ratio corresponds to GATGTTTACT on ATP?
1

What reported switch fluorescence ratio corresponds to AATTCGCACG on ATP?
1.03

What reported switch fluorescence ratio corresponds to CGCGAAGTTG on ATP?
0.999

What reported switch fluorescence ratio corresponds to GAATATTCGC on ATP?
0.996

What reported switch fluorescence ratio corresponds to TTTTAAGGGT on ATP?
0.999

What reported switch fluorescence ratio corresponds to ATTGGAAGAC on ATP?
1.06

What reported switch fluorescence ratio corresponds to TGGTGCGCCC on ATP?
1.03

What reported switch fluorescence ratio corresponds to TAGTCCGTAA on ATP?
2.06

###

- Tested on: ATP;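 also: ATP exposure 15 min at 22 °C before imaging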
- Protocol Details: switch fluorescence ratio, 500 uM ATP over buffer (Cy3 cluster intensity, sum of 5 cycles each) (fold (ratio)); higher = stronger signal-on switching upon ATP binding; sequences stand for … in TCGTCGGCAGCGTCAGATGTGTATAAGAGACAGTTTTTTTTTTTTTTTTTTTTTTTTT…TC
- Assay Conditions: aptamer strand: ATP DNA aptamer (quencher-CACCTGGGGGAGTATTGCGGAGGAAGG + anchor), 100 nM annealed; ATP concentration: 500 uM
Quantity Kind: switch fluorescence ratio
I only need the number, thanks.

# input sequence: CATGGGTGGG ; wanted: its switch fluorescence ratio
0.994

# input sequence: GATAAATGGG ; wanted: its switch fluorescence ratio
0.994

# input sequence: GTTGTCGGGT ; wanted: its switch fluorescence ratio
1.05

# input sequence: ATCGGGATTA ; wanted: its switch fluorescence ratio
0.987

# input sequence: AATTCGAGAT ; wanted: its switch fluorescence ratio
1.01

# input sequence: TCGCCCTCCA ; wanted: its switch fluorescence ratio
1.26

# input sequence: TTTACGTAAA ; wanted: its switch fluorescence ratio
1.08

# input sequence: TGGGGGCGAC ; wanted: its switch fluorescence ratio
1

# input sequence: TTTCGGCGTT ; wanted: its switch fluorescence ratio
1.04

# input sequence: TTGCAGCATG ; wanted: its switch fluorescence ratio
1.51

# input sequence: AGGACTTGTG ; wanted: its switch fluorescence ratio
0.972

# input sequence: GTTTTAGGAG ; wanted: its switch fluorescence ratio
0.995

# input sequence: TGCTAAAGGT ; wanted: its switch fluorescence ratio
0.984

# input sequence: TCTTGAAGG ; wanted: its switch fluorescence ratio
0.953

# input sequence: GAGGAGTAGG ; wanted: its switch fluorescence ratio
1.08

# input sequence: GGGGTATGTT ; wanted: its switch fluorescence ratio
0.99

# input sequence: AGGGTCGGTA ; wanted: its switch fluorescence ratio
1.02

# input sequence: GGGAGTATAG ; wanted: its switch fluorescence ratio
0.991

# input sequence: TAGGGGTGGG ; wanted: its switch fluorescence ratio
1.05

# input sequence: GTGCGAAATC ; wanted: its switch fluorescence ratio
1.25

# input sequence: TAGGTTAAAA ; wanted: its switch fluorescence ratio
0.979

# input sequence: GCGGTTAGCT ; wanted: its switch fluorescence ratio
1.04

# input sequence: AGGCACTTTT ; wanted: its switch fluorescence ratio
1.04

# input sequence: CAAGATTTAT ; wanted: its switch fluorescence ratio
0.99

# input sequence: GGCGGGACGG ; wanted: its switch fluorescence ratio
1.01

# input sequence: AGGTCAGCTG ; wanted: its switch fluorescence ratio
0.99

# input sequence: GAAGGTAGCA ; wanted: its switch fluorescence ratio
1.03

# input sequence: CGCTTTGGTT ; wanted: its switch fluorescence ratio
1.04

# input sequence: TCGTCCGGCG ; wanted: its switch fluorescence ratio
0.965

# input sequence: AGGGGTGCTA ; wanted: its switch fluorescence ratio
1

# input sequence: CATTGGCGTA ; wanted: its switch fluorescence ratio
1.02

# input sequence: CCGGAAGCAG ; wanted: its switch fluorescence ratio
3.95

# input sequence: GGAAAAAGGC ; wanted: its switch fluorescence ratio
0.984

# input sequence: GGTCTGTTTG ; wanted: its switch fluorescence ratio
0.97

# input sequence: AGCTAGTTTA ; wanted: its switch fluorescence ratio
0.998

# input sequence: GTGAATTGGG ; wanted: its switch fluorescence ratio
1.03

# input sequence: TTTGGTATGA ; wanted: its switch fluorescence ratio
0.974

# input sequence: CTTGTGAAA ; wanted: its switch fluorescence ratio
1.01

# input sequence: AGATTGGGGC ; wanted: its switch fluorescence ratio
0.974

# input sequence: GTTGACCTCG ; wanted: its switch fluorescence ratio
0.992

# input sequence: TCGGTGATAC ; wanted: its switch fluorescence ratio
4.52

# input sequence: CAAATAACAT ; wanted: its switch fluorescence ratio
1.01

# input sequence: GGCGTTTGTC ; wanted: its switch fluorescence ratio
1.03

# input sequence: TAATGTGGGA ; wanted: its switch fluorescence ratio
0.967

# input sequence: GGGGTTTTGT ; wanted: its switch fluorescence ratio
1.01

# input sequence: CGTGCGGCGT ; wanted: its switch fluorescence ratio
0.983

# input sequence: TTGGGTACAT ; wanted: its switch fluorescence ratio
1.02

# input sequence: GGGAAATGGG ; wanted: its switch fluorescence ratio
0.975

# input sequence: ATCTGGGTTA ; wanted: its switch fluorescence ratio
0.993

# input sequence: GTTAAGGATT ; wanted: its switch fluorescence ratio
1.03

# input sequence: GGGATGTTAT ; wanted: its switch fluorescence ratio
1.03

# input sequence: TTAGGTTATT ; wanted: its switch fluorescence ratio
0.979

# input sequence: TATAAGGAGG ; wanted: its switch fluorescence ratio
0.994

# input sequence: AAGCGGTTAA ; wanted: its switch fluorescence ratio
1.01

# input sequence: TCTGTCCCTT ; wanted: its switch fluorescence ratio
1.01

# input sequence: GTTCAGAGGG ; wanted: its switch fluorescence ratio
1.05

# input sequence: AAAAAGAATG ; wanted: its switch fluorescence ratio
0.973

# input sequence: TTTTAGAATT ; wanted: its switch fluorescence ratio
0.996

# input sequence: AATCGTCTTT ; wanted: its switch fluorescence ratio
0.961

# input sequence: TGTAGGAAGT ; wanted: its switch fluorescence ratio
0.992

# input sequence: TTAGCGGTAT ; wanted: its switch fluorescence ratio
1.08

# input sequence: CGGGTAGAAG ; wanted: its switch fluorescence ratio
0.971

# input sequence: AAAAGTTTTT ; wanted: its switch fluorescence ratio
0.997

# input sequence: TTGGGCTTTT ; wanted: its switch fluorescence ratio
0.996

# input sequence: AGTTTTTAGC ; wanted: its switch fluorescence ratio
1.01

# input sequence: GATGGAGGAG ; wanted: its switch fluorescence ratio
1.03

# input sequence: GGGAGCCGGG ; wanted: its switch fluorescence ratio
1.03

# input sequence: TAAGGGCGGT ; wanted: its switch fluorescence ratio
0.957

# input sequence: AAGCGGTGGG ; wanted: its switch fluorescence ratio
1.05

# input sequence: TTTTTGTAAG ; wanted: its switch fluorescence ratio
0.998

# input sequence: GACACTTGGA ; wanted: its switch fluorescence ratio
1.03

# input sequence: TTAGATTCGG ; wanted: its switch fluorescence ratio
0.997

# input sequence: GCTTACAGGA ; wanted: its switch fluorescence ratio
1.01

# input sequence: TATGATAACT ; wanted: its switch fluorescence ratio
1.03

# input sequence: TTTATTCAAG ; wanted: its switch fluorescence ratio
0.988

# input sequence: GCCATTGTTG ; wanted: its switch fluorescence ratio
0.998

# input sequence: TTCGTATATA ; wanted: its switch fluorescence ratio
1.01

# input sequence: AATCCAGGGC ; wanted: its switch fluorescence ratio
1.05

# input sequence: TATTCTCGAC ; wanted: its switch fluorescence ratio
1.01

# input sequence: GCTCTTGGGC ; wanted: its switch fluorescence ratio
0.999

# input sequence: TGAACTTGCT ; wanted: its switch fluorescence ratio
1.02

# input sequence: GCGAGCCTCC ; wanted: its switch fluorescence ratio
1.3

# input sequence: TCATACGTCG ; wanted: its switch fluorescence ratio
1.03

# input sequence: GCTCAAGGTA ; wanted: its switch fluorescence ratio
1.01

# input sequence: GCTCCCGGGG ; wanted: its switch fluorescence ratio
1.24

# input sequence: GATAGGGCAT ; wanted: its switch fluorescence ratio
1.02
